# system_tested: dynein light chain LC8 (UniProt P63167 1-89)
# Sequence (P63167 whole entry): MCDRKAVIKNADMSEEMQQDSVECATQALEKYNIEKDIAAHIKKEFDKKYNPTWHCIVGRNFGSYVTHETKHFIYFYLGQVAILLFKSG
# method: ITC
Reported Kd values are given for each entry in this list.
# output: bare number, implied unit nM

binder: PAPPSYSDKGVQTPSK [ZFPM1 peptide]
Kd / nM: 1600

--- query ---
# query: Kd of entry SEIHGISRMTQTPQ [RavL peptide] 8000
